Reference source for all entries: patent US20230295310A1

target: T1, human CD3 expressed on cells (Jurkat cells; human primary T cells) (human, UniProt P07766 23-207; P04234 22-171; P09693 23-182); test: flow cytometry, 25 nM, Jurkat cells
T1 construct: whole, on cells
T1 sequence (P07766 23-207, chain 1 of 3): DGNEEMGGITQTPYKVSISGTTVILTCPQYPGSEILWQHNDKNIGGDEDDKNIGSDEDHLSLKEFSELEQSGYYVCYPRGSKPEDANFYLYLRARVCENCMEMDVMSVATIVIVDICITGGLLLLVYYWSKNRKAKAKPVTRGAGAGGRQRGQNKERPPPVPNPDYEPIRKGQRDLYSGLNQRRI
T1 sequence (P04234 22-171, chain 2 of 3): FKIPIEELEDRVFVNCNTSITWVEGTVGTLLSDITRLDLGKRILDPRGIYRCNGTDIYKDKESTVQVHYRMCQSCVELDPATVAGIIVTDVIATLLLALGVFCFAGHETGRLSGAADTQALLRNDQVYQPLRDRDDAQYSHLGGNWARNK
T1 sequence (P09693 23-182, chain 3 of 3): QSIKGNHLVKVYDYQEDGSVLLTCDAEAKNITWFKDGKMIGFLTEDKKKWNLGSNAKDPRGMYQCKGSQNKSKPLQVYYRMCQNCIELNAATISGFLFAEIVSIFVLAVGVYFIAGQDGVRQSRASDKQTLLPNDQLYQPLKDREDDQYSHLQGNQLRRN
readout kind: Binding (FOI)
Respond with the bare value in FOI.

mAb 216 (antibody, V domains shown, VH/VL only) VH: QVQLVESGGGVVQPGRSLRLSCAASGFTFSGYGMHWVRQAPGKGLEWVAIIYYNGKKEYYADSVKGRFTISRDNSKNTLYLQMNSLRAEDTAVYYCTRGEGYNWFDPWGQGTLVTVSS VL: EIVMTQSPATLSVSPGERATLSCRASQSVSSNLAWYQQKPGQAPRLLIYGASTRATGIPARFSGSGSGTEFTLTISSLQSEDFAVYYCKQYKNWPLTFGGGTKVEIK | 182

[ask] Can you look up the measured Binding (FOI) of mAb 263 (antibody, V domains shown, VH/VL only) VH: EVQLLESGGGLVQPGGSLRLSCTPSGITFNNYAMTWVRQAPGKGLEWVSGISVSGGSTYYADSVMGRFTISRDSSKTLYLQMNSLRAEDTAVYYCAKFHSHYYYYMDVWGKGTTVTVSS VL: SYELTQPLSVSVALGQTARITCGGNNIGSKDVHWYQQKPGQAPVLVIYRDSNRPSGIPERFSGSNSGNTATLTISRAQAGDEADYYCQVWDRRTAVFGGGTQLTAL for me?
[reply] 188
